Origin of the recorded values: patent US11364275B2

- Tested on: rabbit red blood cells
- assay.protocol: Hemolytic activity
- Format: cell-based
- experimental.context: 32 μg/mL; relative to Triton X-100
Where a SMILES comes first, the peptide text is derived from it. [ ]: non-standard residue; d: D form. The star is where a group is joined. Cha = N[C@@H](CC1CCCCC1)C(=O)O; Heptanoyl = CCCCCCC(=O)*; Dab = NCC[C@H](N)C(=O)O
measured.attribute: Hemolysis (%)
One number for each entry, in %.

Below: 2 compounds and their reported Hemolysis.
CCCCCCC(=O)N[C@@H](CCN)C(=O)N[C@H](C(=O)N[C@@H](CCN)C(=O)N[C@H](Cc1ccccc1)C(=O)N[C@@H](CC(C)C)C(=O)N[C@@H](CCN)C(=O)N[C@H](CC(C)C)C(=O)N[C@@H](CC(C)C)C(=O)N[C@@H](CO)C(N)=O)[C@@H](C)CC [Analogue 5] (Heptanoyl-[Dab]I[Dab][dF]L[Dab][dL]LS-NH2) ... 1.39
CCCCCCC(=O)N[C@@H](CCN)C(=O)N[C@H](C(=O)N[C@@H](CCN)C(=O)N[C@H](Cc1ccccc1)C(=O)N[C@@H](CC(C)C)C(=O)N[C@@H](CCN)C(=O)N[C@@H](C(=O)N[C@@H](CC(C)C)C(=O)N[C@@H](CO)C(N)=O)C(C)C)C(C)C [Analogue 2] (Heptanoyl-[Dab]V[Dab][dF]L[Dab][dV]LS-NH2) ... 0.32

Consider the additional compound presented here.
# input Which value of Hemolysis has been reported for CC[C@H](C)[C@H](NC(=O)[C@H](CCN)NC(=O)[C@@H](N)CC1CCCCC1)C(=O)N[C@@H](CCN)C(=O)N[C@H](Cc1ccccc1)C(=O)N[C@@H](CC(C)C)C(=O)N[C@@H](CCN)C(=O)N[C@@H](C(=O)N[C@@H](CC(C)C)C(=O)N[C@@H](CO)C(N)=O)C(C)C [Analogue 16] (H-[Cha][Dab]I[Dab][dF]L[Dab][dV]LS-NH2) in the records?
# output 0.33
